Recorded values, source ChEMBL document CHEMBL4196213.

Test: AUC (0 to t) in mouse at 10 mg/kg, po
Assay type: ADME, organism-based
Details: in vivo
MEASURE: AUC(0-t) (ng·h/mL)
Output spec: scalar in ng·h/mL, unitless text.

[ask] AUC(0-t) lookup needed for `Cn1cc(Nc2nc(N)nc(-c3cccc(-n4ccc5cc(C6CC6)cc(F)c5c4=O)c3CO)n2)cn1` , thanks.
[reply] 10200
